In this section we review reported koff values for a set of binders.
target_under_test: T1, human interleukin-23 receptor (IL23R) (human, UniProt Q5VWK5 24-355, limits assumed)
T1 construct: also called human IL23R
T1 sequence (looked up): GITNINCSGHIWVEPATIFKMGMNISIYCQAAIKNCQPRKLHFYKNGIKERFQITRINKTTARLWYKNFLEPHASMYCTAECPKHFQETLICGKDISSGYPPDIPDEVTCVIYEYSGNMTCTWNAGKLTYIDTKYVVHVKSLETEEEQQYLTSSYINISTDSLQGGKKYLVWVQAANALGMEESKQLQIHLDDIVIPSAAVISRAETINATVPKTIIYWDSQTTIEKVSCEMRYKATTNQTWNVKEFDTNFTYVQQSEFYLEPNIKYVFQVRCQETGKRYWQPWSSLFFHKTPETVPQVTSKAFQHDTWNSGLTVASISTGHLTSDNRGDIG
experiment: SPR, scFv

binder	koff [s⁻¹]
Vκ3/VH5 consensus λ-capped, human IL23R specific scFv (scFv, scFv VL-linker-VH, made in E. coli; also called Vκ3VH5 capped) scFv: DIVLTQSPATLSLSPGERATLSCQASENIYSFLAWYQQKPGQAPRLLIYSASKLAAGVPARFSGSGSGTDFTLTISSLEPEDFAVYYCQQTNRYSNPDIYNVFGGGTKLTVLGGGGGSGGGGSGGGGSGGGGSEVQLVQSGAEVKKPGESLKISCKGSGIDFNSNYYMCWVRQMPGKGLEWMGCIYVGSHVNTYYANWAKGQVTISADKSISTAYLQWSSLKASDTAMYYCATSGSSVLYFKFWGQGTLVTVSS	0.0013
Vκ3/VH1A consensus λ-capped, human IL23R specific scFv (scFv, scFv VL-linker-VH, made in E. coli; also called Vκ3VH1A capped) scFv: DIVLTQSPATLSLSPGERATLSCQASENIYSFLAWYQQKPGQAPRLLIYSASKLAAGVPARFSGSGSGTDFTLTISSLEPEDFAVYYCQQTNRYSNPDIYNVFGGGTKLTVLGGGGGSGGGGSGGGGSGGGGSQVQLVQSGAEVKKPGSSVKVSCKASGIDFNSNYYMCWVRQAPGQGLEWMGCIYVGSHVNTYYANWAKGRVTITADESTSTAYMELSSLRSEDTAVYYCATSGSSVLYFKFWGQGTLVTVSS	0.00117
